Taken from BindingDB's records for doi:10.1021/jm00020a026.

- PROTOCOL_NOTES: antiviral activity in Human immunodeficiency virus-1 as reverse transcriptase activity in culture supernatant
QUANTITY: pIC50
Numbers only, as −log10 of the molar value.

[[record]]
compound = "NC(=O)c1cn(C2OC(CO)C(O)C2F)c2ncnc(N)c12 (stereo unspecified)"
reported_result = 7.70

[[record]]
compound = "N#Cc1cn([C@@H]2O[C@H](CO)[C@@H](O)[C@@H]2F)c2ncnc(N)c12"
reported_result = 4.92

[[record]]
compound = "Cc1cn([C@H]2C[C@H](N=[N+]=[N-])[C@@H](CO)O2)c(=O)[nH]c1=O"
reported_result = 7.96

[[record]]
compound = "NC(=S)c1cn(C2OC(CO)C(O)C2F)c2ncnc(N)c12 (stereo unspecified)"
reported_result = 7.15


Quick one: give measured pIC50 for N#Cc1c(Br)n([C@H]2O[C@H](CO)[C@@H](O)[C@@H]2F)c2ncnc(N)c12
4.49
